method summary: folding stability dG unfold from chymotrypsin proteolysis; higher = more stable
// reported folding stability dG unfold per item
outcome measure: folding stability dG unfold (kcal/mol)

{"chain sequence": "SAGFGVYKHKYKYDNDDGNPKPKKPEEEPVEPAPPIEPLPIPIRLPDGQPFTFTILSISPKNNNISLNGSAG [r5_735_TrROS]", "unit tag": "kcal/mol", "measurement": 0.382}
{"chain sequence": "SAIRIEEITIDPEYGVITITFDYPMPPGAEKIKFKIFIDGFKIKEIEYEVDPENGWVRMTLTIRIPKDASAG [r14_244_TrROS]", "unit tag": "kcal/mol", "measurement": 6.5}
{"chain sequence": "SAGGKKTYKVRIEIKVTDPNGKKRTIEIELEVPESEEEAEKLAKELAEKLKEKGYKVEIVKIEVEPLSAGGS [r16_525_TrROS_Hall]", "unit tag": "kcal/mol", "measurement": 4.08}
{"chain sequence": "SAKLIRDLLRDHGFPIKNIDVQKNPNGKTYISIEIKMYTPEYKNDEGRPKPRPVEMTATFPADDLLDALSAG [r14_16_TrROS]", "unit tag": "kcal/mol", "measurement": 0.507}
{"chain sequence": "SAGGSAGGSAGGKKPVKITEIHRNPGPNWIRIRIPGNGRPIPIPVPPGKKLTLEDALDFSAGGSAGGSAGGS [r10_844_TrROS]", "unit tag": "kcal/mol", "measurement": -0.0211}
{"chain sequence": "SAGGSAGGSAGGSWRVRIDLPNGKSRTIPIKPGEEVDLNEIADELSDKYNIKSISIEEPSAGGSAGGSAGGS [r4_116_TrROS]", "unit tag": "kcal/mol", "measurement": 0.42}
{"chain sequence": "SAGGSMKLTTTTPDGKPFEADVTEYPTFYKITFKVGNKEYTLLANPSTNTVDGNVDGFPFKLKLNPSAGGSA [r2_194_TrMRF]", "unit tag": "kcal/mol", "measurement": 1.25}
